test: Selectivity index, ratio of IC50 for human WI38 cells to IC50 for human MCF7 cells; type: toxicity; conditions: WI38 cells versus MCF7 cells, read-out: Ratio IC50
Hi! Just check whether selectivity ratio is below 2. Below gives Fulfilled, equal or above gives Not fulfilled.

[
  {
    "mol": "O=COC1(C(=O)Nc2ccc([N+](=O)[O-])cc2)CCCCC1",
    "className": "Fulfilled"
  },
  {
    "mol": "O=C(OC1(C(=O)Nc2ccc([N+](=O)[O-])cc2)CCCCC1)c1ccc([N+](=O)[O-])cc1",
    "className": "Not fulfilled"
  },
  {
    "mol": "O=C(/C=C/c1ccccc1)OC1(C(=O)Nc2ccc([N+](=O)[O-])cc2)CCCCC1",
    "className": "Fulfilled"
  },
  {
    "mol": "CCOC(=O)c1ccccc1C(=O)OC1(C(=O)Nc2ccc([N+](=O)[O-])cc2)CCCCC1",
    "className": "Fulfilled"
  },
  {
    "mol": "O=C(OC1(C(=O)Nc2ccc([N+](=O)[O-])cc2)CCCCC1)c1ccc(C(F)(F)F)cc1",
    "className": "Not fulfilled"
  },
  {
    "mol": "COC1(Nc2ccc([N+](=O)[O-])cc2)C(=O)c2ccccc2C1=O",
    "className": "Not fulfilled"
  },
  {
    "mol": "O=C(Nc1ccc([N+](=O)[O-])cc1)C1(O)CCCCC1",
    "className": "Fulfilled"
  },
  {
    "mol": "O=C(OC1(C(=O)Nc2ccc([N+](=O)[O-])cc2)CCCCC1)c1ccc(Br)cc1",
    "className": "Not fulfilled"
  },
  {
    "mol": "O=C(Cc1ccccc1)OC1(C(=O)Nc2ccc([N+](=O)[O-])cc2)CCCCC1",
    "className": "Not fulfilled"
  },
  {
    "mol": "O=C(OC1(C(=O)Nc2ccc([N+](=O)[O-])cc2)CCCCC1)c1ccccc1",
    "className": "Fulfilled"
  },
  {
    "mol": "O=C(OC1(C(=O)Nc2ccc([N+](=O)[O-])cc2)C(=O)c2ccccc2C1=O)c1ccc(C(F)(F)F)cc1",
    "className": "Not fulfilled"
  },
  {
    "mol": "CC1(C)CC(=O)C=C(Nc2ccc([N+](=O)[O-])cc2)C1",
    "className": "Fulfilled"
  },
  {
    "mol": "CCC(=O)OC1(C(=O)Nc2ccc([N+](=O)[O-])cc2)CCCCC1",
    "className": "Not fulfilled"
  },
  {
    "mol": "Cc1ccccc1C(=O)OC1(C(=O)Nc2ccc([N+](=O)[O-])cc2)CCCCC1",
    "className": "Fulfilled"
  },
  {
    "mol": "CC(=O)Oc1ccccc1C(=O)OC1(C(=O)Nc2ccc([N+](=O)[O-])cc2)CCCCC1",
    "className": "Not fulfilled"
  },
  {
    "mol": "O=C(OC1(C(=O)Nc2ccc([N+](=O)[O-])cc2)CCCCC1)c1ccc(Cl)cc1",
    "className": "Not fulfilled"
  },
  {
    "mol": "COc1ccc(C(=O)OC2(C(=O)Nc3ccc([N+](=O)[O-])cc3)CCCCC2)cc1",
    "className": "Fulfilled"
  },
  {
    "mol": "O=C1OC2(CCCCC2)C(=O)N1c1ccc([N+](=O)[O-])cc1",
    "className": "Not fulfilled"
  },
  {
    "mol": "O=C(OC1(C(=O)Nc2ccc([N+](=O)[O-])cc2)CCCCC1)c1ccccc1[N+](=O)[O-]",
    "className": "Not fulfilled"
  }
]
